Task for the reader: assign each of the following compounds its reported inhibition at 0.01 µM.
MEASURED ON: Androgen Receptor (AR) protein (Homo sapiens, UniProt P10275, T878A)
Construct: endogenous in cells; host or cells: LNCaP
Sequence (P10275 whole entry T878A): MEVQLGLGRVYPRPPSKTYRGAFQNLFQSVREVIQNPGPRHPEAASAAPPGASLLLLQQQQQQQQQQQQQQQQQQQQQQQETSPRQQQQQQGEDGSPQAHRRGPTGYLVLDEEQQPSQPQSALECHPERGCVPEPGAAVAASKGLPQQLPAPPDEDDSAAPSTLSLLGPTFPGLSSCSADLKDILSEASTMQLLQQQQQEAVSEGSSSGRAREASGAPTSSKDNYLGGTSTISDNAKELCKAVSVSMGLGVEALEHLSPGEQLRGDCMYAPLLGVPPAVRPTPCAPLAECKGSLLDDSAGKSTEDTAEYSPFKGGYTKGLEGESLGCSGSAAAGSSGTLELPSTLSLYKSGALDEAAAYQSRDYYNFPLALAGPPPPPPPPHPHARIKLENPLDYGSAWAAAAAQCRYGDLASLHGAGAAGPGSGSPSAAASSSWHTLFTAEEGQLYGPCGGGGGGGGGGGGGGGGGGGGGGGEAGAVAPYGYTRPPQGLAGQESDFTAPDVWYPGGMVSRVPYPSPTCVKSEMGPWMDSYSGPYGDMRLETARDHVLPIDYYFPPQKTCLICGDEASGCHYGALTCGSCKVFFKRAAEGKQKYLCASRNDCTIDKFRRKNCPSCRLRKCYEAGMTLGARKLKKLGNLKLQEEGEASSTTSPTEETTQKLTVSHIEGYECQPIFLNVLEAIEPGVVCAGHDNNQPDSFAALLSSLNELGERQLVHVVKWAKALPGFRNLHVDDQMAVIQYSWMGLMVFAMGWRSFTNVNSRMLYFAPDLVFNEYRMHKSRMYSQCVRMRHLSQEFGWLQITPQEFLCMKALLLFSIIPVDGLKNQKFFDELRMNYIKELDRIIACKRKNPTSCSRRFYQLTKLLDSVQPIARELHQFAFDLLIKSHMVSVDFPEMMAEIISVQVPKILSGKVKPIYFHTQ
Sequence (Q96SW2 whole entry partner): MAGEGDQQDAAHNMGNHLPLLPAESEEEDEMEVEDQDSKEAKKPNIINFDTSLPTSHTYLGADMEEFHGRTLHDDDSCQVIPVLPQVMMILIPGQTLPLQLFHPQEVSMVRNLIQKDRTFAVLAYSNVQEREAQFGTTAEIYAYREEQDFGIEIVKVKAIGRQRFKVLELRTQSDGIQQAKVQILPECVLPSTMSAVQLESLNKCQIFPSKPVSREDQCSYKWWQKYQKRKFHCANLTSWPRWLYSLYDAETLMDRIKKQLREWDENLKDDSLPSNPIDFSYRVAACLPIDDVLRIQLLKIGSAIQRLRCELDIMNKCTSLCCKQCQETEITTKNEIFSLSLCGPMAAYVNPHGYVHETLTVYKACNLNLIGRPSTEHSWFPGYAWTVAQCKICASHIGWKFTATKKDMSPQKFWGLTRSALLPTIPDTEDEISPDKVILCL
EXPERIMENT SUMMARY: Androgen Receptor (AR) protein degradation assay in LNCaP cells, western blotting
Format: cell-based
EXPERIMENTAL SETUP: 20 h, 0.01 μM compound
Reply with just the number (in %).

The compound identified as N#Cc1ccc(N2CCC(CC(=O)Nc3ccc(N4CCC(CN5CC6(CCN(c7ccc8c(c7)C(=O)N(C7CCC(=O)NC7=O)C8=O)CC6)C5)CC4)cn3)C2)cc1C(F)(F)F (centres unmarked) registered its inhibition at 0.01 µM at -8

The compound identified as N#Cc1ccc(N2CCC(C(=O)Nc3ccc(N4CCC(CN5CC(CN6CCN(c7ccc8c(n7)CN(C7CCC(=O)NC7=O)C8=O)CC6)C5)CC4)cn3)CC2)cc1C(F)(F)F (centres unmarked) registered its inhibition at 0.01 µM at 34

The compound identified as N#Cc1ncc(N2CCC(F)(C(=O)Nc3ccc(N4CCC(CN5CCN(CC6CCN(c7ccc8c(c7)C(=O)N(C7CCC(=O)NC7=O)C8=O)CC6)CC5)CC4)cn3)CC2)cc1C(F)(F)F (centres unmarked) registered its inhibition at 0.01 µM at 9

The compound identified as N#Cc1ccc(N2CCC(C(=O)Nc3ccc(N4CC(CN5CCN(C[C@H]6CCN(c7ccc8c(c7)C(=O)N(C7CCC(=O)NC7=O)C8=O)C6)CC5)C4)cn3)CC2)cc1C(F)(F)F (some centres unmarked) registered its inhibition at 0.01 µM at 82

The compound identified as N#Cc1ccc(N2CCC(C(=O)Nc3ccc(N4CCC(CN5CCN(C[C@H]6CCCN(c7ccc8c(c7)C(=O)N(C7CCC(=O)NC7=O)C8=O)C6)CC5)CC4)cn3)CC2)cc1C(F)(F)F (some centres unmarked) registered its inhibition at 0.01 µM at 50

====

MEASURED ON: Androgen Receptor (AR) protein (Homo sapiens, UniProt P10275, T878A)
Construct: endogenous in cells; host or cells: LNCaP
EXPERIMENT SUMMARY: Androgen Receptor (AR) protein degradation assay in LNCaP cells, western blotting
Format: cell-based
EXPERIMENTAL SETUP: 20 h, 1 μM compound
Label 1 (yes) when inhibition at 1 µM is at or above 90%; anything below gets 0 (no).

Q. Determine whether measured inhibition at 1 µM meets or exceeds 90% for N#Cc1ccc(N2CCC(C(=O)Nc3ccc(OCC4CCN(CC5CN(c6ccc7c(c6)C(=O)N(C6CCC(=O)NC6=O)C7=O)C5)CC4)cn3)CC2)cc1C(F)(F)F (stereo not drawn)
A. 1 (yes)

Q. Determine whether measured inhibition at 1 µM meets or exceeds 90% for N#Cc1ccc(N2CCC(C(=O)Nc3ccc(N4CCN(CC5CCN(C(=O)CNc6ccc7c(c6)C(=O)N(C6CCC(=O)NC6=O)C7=O)CC5)CC4)cn3)CC2)cc1C(F)(F)F (stereo not drawn)
A. 1 (yes)

Q. Determine whether measured inhibition at 1 µM meets or exceeds 90% for N#Cc1ccc(N2CCC(C(=O)Nc3ccc(CN4CCN(CC5CCN(c6ccc7c(c6)C(=O)N(C6CCC(=O)NC6=O)C7=O)CC5)CC4)cn3)CC2)cc1C(F)(F)F (stereo not drawn)
A. 1 (yes)

Q. Determine whether measured inhibition at 1 µM meets or exceeds 90% for N#Cc1ccc(N2CCC(C(=O)Nc3ccc(N4CCC(CCN5CCN(c6ccc7c(c6)CN(C6CCC(=O)NC6=O)C7=O)CC5)CC4)cn3)CC2)cc1C(F)(F)F (stereo not drawn)
A. 0 (no)

Q. Determine whether measured inhibition at 1 µM meets or exceeds 90% for N#Cc1ccc(N2CCC(C(=O)Nc3ccc(N4CCC(CN5CCN(Cc6ccc7c(c6)C(=O)N(C6CCC(=O)NC6=O)C7=O)CC5)CC4)cn3)CC2)cc1C(F)(F)F (stereo not drawn)
A. 1 (yes)

Q. Determine whether measured inhibition at 1 µM meets or exceeds 90% for C[C@@H]1CN(CC2CCN(c3ccc(NC(=O)C4CCN(c5ccc(C#N)c(C(F)(F)F)c5)CC4)nc3)CC2)CCN1CC1CN(c2ccc3c(c2)C(=O)N(C2CCC(=O)NC2=O)C3=O)C1 (stereo partly drawn)
A. 1 (yes)

Q. Determine whether measured inhibition at 1 µM meets or exceeds 90% for N#Cc1ccc(N2CCC(C(=O)Nc3cnc(N4CCC(CCN5CCN(c6ccc7c(c6)C(=O)N(C6CCC(=O)NC6=O)C7=O)CC5)CC4)cn3)CC2)cc1C(F)(F)F (stereo not drawn)
A. 1 (yes)

Q. Determine whether measured inhibition at 1 µM meets or exceeds 90% for N#Cc1ccc(N2CCC(C(=O)Nc3ccc(N4CCC(CN5CC(N6CCN(c7ccc8c(n7)CN(C7CCC(=O)NC7=O)C8=O)CC6)C5)CC4)cn3)CC2)cc1C(F)(F)F (stereo not drawn)
A. 0 (no)

====

MEASURED ON: Androgen Receptor (AR) protein (Homo sapiens, UniProt P10275, T878A)
Construct: endogenous in cells; host or cells: LNCaP
EXPERIMENT SUMMARY: Androgen Receptor (AR) protein degradation assay in LNCaP cells, western blotting
Format: cell-based
EXPERIMENTAL SETUP: 20 h, 0.01 μM compound
RECORDED ENDPOINT: inhibition at 0.01 µM (%)
Reply with just the number (in %).

Entry N#Cc1ccc(N2CCC(F)(C(=O)Nc3ccc(N4CCC(CCN5CCN(c6ccc7c(c6)C(=O)N(C6CCC(=O)NC6=O)C7=O)CC5)CC4)cn3)CC2)cc1C(F)(F)F (stereo not drawn) : inhibition at 0.01 µM on Androgen Receptor (AR) protein (Homo sapiens, UniProt P10275, T878A) = 35

Entry N#Cc1ccc(N2CCC(C(=O)Nc3ccc(N4CCC5(CC4)CN(C(=O)C4CCN(c6ccc7c(c6)C(=O)N(C6CCC(=O)NC6=O)C7=O)CC4)C5)cn3)CC2)cc1C(F)(F)F (stereo not drawn) : inhibition at 0.01 µM on Androgen Receptor (AR) protein (Homo sapiens, UniProt P10275, T878A) = 11

Entry N#Cc1ccc(N2CCC(C(=O)Nc3ccc(CN4CCC(CN5CCN(c6cc7c(cc6F)C(=O)N(C6CCC(=O)NC6=O)C7=O)CC5)CC4)cn3)CC2)cc1C(F)(F)F (stereo not drawn) : inhibition at 0.01 µM on Androgen Receptor (AR) protein (Homo sapiens, UniProt P10275, T878A) = 1

Entry N#Cc1ccc(N2CCC(C(=O)Nc3ccc(N4CCC(CN5CCN(CC6CCN(c7ccc8c(n7)CN(C7CCC(=O)NC7=O)C8=O)CC6)CC5)CC4)cn3)CC2)cc1C(F)(F)F (stereo not drawn) : inhibition at 0.01 µM on Androgen Receptor (AR) protein (Homo sapiens, UniProt P10275, T878A) = 88

Entry N#Cc1ccc(N2CCC(C(=O)Nc3ccc(N4CCC(CN5CC6(CCN(c7ccc8c(c7)C(=O)N(C7CCC(=O)NC7=O)C8=O)CC6)C5)CC4)nc3)CC2)cc1C(F)(F)F (stereo not drawn) : inhibition at 0.01 µM on Androgen Receptor (AR) protein (Homo sapiens, UniProt P10275, T878A) = 9

Entry N#Cc1ccc(N2CCC(C(=O)Nc3ccc(OC4CN(CC5CCN(c6ccc7c(c6)C(=O)N(C6CCC(=O)NC6=O)C7=O)CC5)C4)cn3)CC2)cc1C(F)(F)F (stereo not drawn) : inhibition at 0.01 µM on Androgen Receptor (AR) protein (Homo sapiens, UniProt P10275, T878A) = 58

Entry N#Cc1ncc(N2CCC(C(=O)Nc3ccc(N4CCC(CN5CC6(CCN(c7ccc8c(c7)CN(C7CCC(=O)NC7=O)C8=O)CC6)C5)CC4)cn3)CC2)cc1C(F)(F)F (stereo not drawn) : inhibition at 0.01 µM on Androgen Receptor (AR) protein (Homo sapiens, UniProt P10275, T878A) = 46

Entry N#Cc1ccc(N2CCC(C(=O)Nc3ccc(N4CCN(CCOC5CCN(c6ccc7c(c6)C(=O)N(C6CCC(=O)NC6=O)C7=O)CC5)CC4)cn3)CC2)cc1Cl (stereo not drawn) : inhibition at 0.01 µM on Androgen Receptor (AR) protein (Homo sapiens, UniProt P10275, T878A) = 34

Entry CC1(CN2CCC(Oc3ccc(NC(=O)C4CCN(c5ccc(C#N)c(C(F)(F)F)c5)CC4)nc3)CC2)CN(c2ccc3c(c2)C(=O)N(C2CCC(=O)NC2=O)C3=O)C1 (stereo not drawn) : inhibition at 0.01 µM on Androgen Receptor (AR) protein (Homo sapiens, UniProt P10275, T878A) = 56

Entry N#Cc1ccc(N2CCC(C(=O)Nc3ccc(N4CCC(CN5CCN(C[C@H]6CCN(c7ccc8c(c7)C(=O)N(C7CCC(=O)NC7=O)C8=O)C6)CC5)CC4)cn3)CC2)cc1C(F)(F)F (stereo partly drawn) : inhibition at 0.01 µM on Androgen Receptor (AR) protein (Homo sapiens, UniProt P10275, T878A) = 72

Entry N#Cc1ccc(N2CCC(C(=O)Nc3ccc(N4CC5(CCN(CC6CCN(c7ccc8c(c7)C(=O)N(C7CCC(=O)NC7=O)C8=O)CC6)CC5)C4)cn3)CC2)cc1Cl (stereo not drawn) : inhibition at 0.01 µM on Androgen Receptor (AR) protein (Homo sapiens, UniProt P10275, T878A) = 71

Entry N#Cc1ccc(N2CCC(C(=O)Nc3ccc(N4CC(CN5CCN(C[C@@H]6CCN(c7ccc8c(c7)C(=O)N(C7CCC(=O)NC7=O)C8=O)C6)CC5)C4)cn3)CC2)cc1C(F)(F)F (stereo partly drawn) : inhibition at 0.01 µM on Androgen Receptor (AR) protein (Homo sapiens, UniProt P10275, T878A) = 80
